Origin of the recorded values: paper PMC10082216

# ASSAY OVERVIEW: TD-6450 phase I clinical study (SAD/MAD): pharmacokinetics
# Format: in vivo, human
# CONDITION NOTES: both sexes, human, plasma, oral, 240 mg, MAD 240 mg, day 14; read-out: Cmax Mean ± SD, D14

# COMPOUND, Cmax, nM
records = [
    ("CNC(=O)N1C[C@@H](C)N(c2ccc(C(=O)Nc3ccc(-c4ccc(-c5c[nH]c([C@@H]6CCCN6C(=O)[C@@H](NC(=O)OC)C(C)C)n5)cc4)c(OC(F)(F)F)c3)cn2)C[C@@H]1C [TD-6450]", 1770),
]

---

# ASSAY OVERVIEW: TD-6450 phase I clinical study (SAD/MAD): pharmacokinetics
# Format: in vivo, human
# CONDITION NOTES: human, in vivo, 5 mg; Male subjects, SAD arm NCT02022306, Dose 5.00, 48 Hours; read-out: Concentration
MEASURED PROPERTY: concentration at 48 h (ng/mL)

# COMPOUND, ASSAY RESULT
records = [
    ("CNC(=O)N1C[C@@H](C)N(c2ccc(C(=O)Nc3ccc(-c4ccc(-c5c[nH]c([C@@H]6CCCN6C(=O)[C@@H](NC(=O)OC)C(C)C)n5)cc4)c(OC(F)(F)F)c3)cn2)C[C@@H]1C [TD-6450]", 1.81),
]

---

# ASSAY OVERVIEW: Hit scoring on safety in human subjects and pharmacokinetics
# CONDITION NOTES: human
# From the text: Hits from the ReFrame library were further selected based on safety, preferably oral administration (high score if oral), and potential availability for widespread use.
Structures can show the parent of a compound that is named as a salt.
Below, each of the compounds is paired with its reported Score (safety) value.
MEASURED PROPERTY: Score (safety)

# COMPOUND, MEASURED PROPERTY, ASSAY RESULT
records = [
    ("CO[C@H]1C[C@H](O[C@H]2CC[C@]3(C=O)[C@H]4CC[C@]5(C)[C@@H](C6=CC(=O)OC6)CC[C@]5(O)[C@@H]4CC[C@]3(O)C2)O[C@H](C)[C@H]1O", "Score (safety)", 0),
    ("C[C@H]1O[C@@H](O[C@H]2[C@@H](O)C[C@H](O[C@H]3[C@@H](O)C[C@H](O[C@H]4CC[C@@]5(C)[C@H](CC[C@@H]6[C@@H]5CC[C@]5(C)[C@@H](C7=CC(=O)OC7)CC[C@]65O)C4)O[C@@H]3C)O[C@@H]2C)C[C@H](O)[C@@H]1O", "Score (safety)", 3),
    ("COC1=C(OC)C(=O)C(CCCCCCCCCC[P+](c2ccccc2)(c2ccccc2)c2ccccc2)=C(C)C1=O [Mitoquinone mesylate]", "Score (safety)", 3),
    ("CC(=O)O[C@H]1C[C@H](O[C@H]2[C@@H](O)C[C@H](O[C@H]3[C@@H](O)C[C@H](OC4CC[C@@]5(C)[C@H](CC[C@@H]6[C@@H]5CC[C@]5(C)[C@@H](C7=CC(=O)OC7)CC[C@]65O)C4)O[C@@H]3C)O[C@@H]2C)O[C@H](C)[C@H]1O[C@@H]1O[C@H](CO)[C@@H](O)[C@H](O)[C@H]1O (stereo partly drawn) [Lanatoside A]", "Score (safety)", 0),
    ("O=C(CC1NCCCC1O)Cn1cnc2cc(Br)c(Cl)cc2c1=O (stereo not drawn)", "Score (safety)", 3),
    ("C[C@@H]1O[C@@H](O[C@@H]2C=C3CC[C@@H]4[C@H](CC[C@]5(C)[C@@H](c6ccc(=O)oc6)CC[C@]45O)[C@@]3(C)CC2)[C@H](O)[C@H](O)[C@H]1O", "Score (safety)", 0),
]

---

# ASSAY OVERVIEW: TD-6450 phase I clinical study (SAD/MAD): pharmacokinetics
# Type: in vivo, human
# CONDITION NOTES: male, human, plasma, oral, 30 mg, Male subjects, SAD arm NCT02022306, Dose 30.00, 2 Hours; read-out: Concentration

# TEST SMILES, concentration at 2 h, ng/mL
rows = [
    ("CNC(=O)N1C[C@@H](C)N(c2ccc(C(=O)Nc3ccc(-c4ccc(-c5c[nH]c([C@@H]6CCCN6C(=O)[C@@H](NC(=O)OC)C(C)C)n5)cc4)c(OC(F)(F)F)c3)cn2)C[C@@H]1C", 9.36),
]

---

# ASSAY OVERVIEW: TD-6450 phase I clinical study (SAD/MAD): pharmacokinetics
# Assay type: in vivo, human
# CONDITION NOTES: female, human, plasma, oral, 30 mg, Female subjects, SAD arm NCT02022306, Dose 30.00, 6 Hours; read-out: Concentration
# Method: Primary and secondary outcomes were pre-defined as follows: Safety and tolerability as a primary outcome, pharmacokinetics as a secondary outcome. Safety and tolerability were evaluated using standard measures, including adverse event (AE) monitoring, clinical laboratory tests (hematology, serum chemistry, coagulation, and urinalysis), vital signs, physical examinations, and 12-lead electrocardiograms (ECGs). […] This study was conducted in two parts, Part A (SAD) and Part B (MAD). […]

# COMPOUND, concentration at 6 h / ng/mL
measured = [
    ("CNC(=O)N1C[C@@H](C)N(c2ccc(C(=O)Nc3ccc(-c4ccc(-c5c[nH]c([C@@H]6CCCN6C(=O)[C@@H](NC(=O)OC)C(C)C)n5)cc4)c(OC(F)(F)F)c3)cn2)C[C@@H]1C [TD-6450]", 70.6),
]

---

# ASSAY OVERVIEW: TD-6450 phase I clinical study (SAD/MAD): pharmacokinetics
# Type: in vivo, human
# CONDITION NOTES: female, human, plasma, oral, 15 mg, Female subjects, SAD arm NCT02022306, Dose 15.00, 120 Hours; read-out: Concentration
MEASURED PROPERTY: concentration at 120 h (ng/mL)

# COMPOUND, MEASURED PROPERTY, UNIT DESCRIPTOR, ASSAY RESULT
records = [
    ("CNC(=O)N1C[C@@H](C)N(c2ccc(C(=O)Nc3ccc(-c4ccc(-c5c[nH]c([C@@H]6CCCN6C(=O)[C@@H](NC(=O)OC)C(C)C)n5)cc4)c(OC(F)(F)F)c3)cn2)C[C@@H]1C [TD-6450]", "concentration at 120 h", "ng/mL", 4.42),
]

---

# ASSAY OVERVIEW: TD-6450 phase I clinical study (SAD/MAD): pharmacokinetics
# Type: in vivo, human
# CONDITION NOTES: female, human, plasma, oral, 15 mg, Female subjects, SAD arm NCT02022306, Dose 15.00, 2 Hours; read-out: Concentration
# Protocol: Primary and secondary outcomes were pre-defined as follows: Safety and tolerability as a primary outcome, pharmacokinetics as a secondary outcome. Safety and tolerability were evaluated using standard measures, including adverse event (AE) monitoring, clinical laboratory tests (hematology, serum chemistry, coagulation, and urinalysis), vital signs, physical examinations, and 12-lead electrocardiograms (ECGs). […] This study was conducted in two parts, Part A (SAD) and Part B (MAD). […]
MEASURED PROPERTY: concentration at 2 h

# TEST SMILES, MEASURED PROPERTY, ASSAY RESULT
rows = [
    ("CNC(=O)N1C[C@@H](C)N(c2ccc(C(=O)Nc3ccc(-c4ccc(-c5c[nH]c([C@@H]6CCCN6C(=O)[C@@H](NC(=O)OC)C(C)C)n5)cc4)c(OC(F)(F)F)c3)cn2)C[C@@H]1C", "concentration at 2 h", "10.1 ng/mL"),
]

---

# ASSAY OVERVIEW: TD-6450 phase I clinical study (SAD/MAD): pharmacokinetics
# Type: in vivo, human
# CONDITION NOTES: male, human, plasma, oral, 30 mg, Male subjects, SAD arm NCT02022306, Dose 30.00, 3 Hours; read-out: Concentration (ng/ml)
MEASURED PROPERTY: concentration at 3 h (ng/mL)

# TEST SMILES, ASSAY RESULT
records = [
    ("CNC(=O)N1C[C@@H](C)N(c2ccc(C(=O)Nc3ccc(-c4ccc(-c5c[nH]c([C@@H]6CCCN6C(=O)[C@@H](NC(=O)OC)C(C)C)n5)cc4)c(OC(F)(F)F)c3)cn2)C[C@@H]1C", 20.9),
]

---

# ASSAY OVERVIEW: TD-6450 phase I clinical study (SAD/MAD): pharmacokinetics
# Assay type: in vivo, human
# CONDITION NOTES: female, human, plasma, oral, 15 mg, Female subjects, SAD arm NCT02022306, Dose 15.00, 30 Minutes; read-out: Concentration
MEASURED PROPERTY: concentration at 30 min (ng/mL)

# MOLECULE, MEASURED PROPERTY, UNIT DESCRIPTOR, ASSAY RESULT
measured = [
    ("CNC(=O)N1C[C@@H](C)N(c2ccc(C(=O)Nc3ccc(-c4ccc(-c5c[nH]c([C@@H]6CCCN6C(=O)[C@@H](NC(=O)OC)C(C)C)n5)cc4)c(OC(F)(F)F)c3)cn2)C[C@@H]1C [TD-6450]", "concentration at 30 min", "ng/mL", 0),
]
